Catalogue of melting point readings, one per entry.

Requested read-out: melting point. Entry: O=C(NCC(=O)c1ccco1)c1ccc(F)cc1
153 to 155 °C

One more compound: CC=COCCC[C@H]1CC[C@H](c2cccc(F)c2F)CC1
35.5 to 36.9 °C

One more compound: COc1c(NC(=O)Nc2ccc(-c3ccc(CN4CCOCC4)nc3)c3ccccc23)cc(C(C)(C)C)cc1NS(=O)(=O)c1ccccc1
206 to 207 °C

One more compound: Cc1ccc(-c2c(-c3ccc(S(C)(=O)=O)cc3)cnn(-c3cccc(Cl)c3)c2=O)cc1
222 to 224 °C

One more compound: CCOC(=O)C1C(=C=S)NCC1CCc1ccc(C(=O)O)cc1 (centres undefined)
145 to 148 °C

One more compound: Cc1[nH]c(=S)n(Nc2cccc(F)c2)c1-c1ccccc1
226 °C

One more compound: CC(C)CC1(C(CCN2C(=O)c3ccc(N)cc3C2=O)C(=O)NO)CCN(CCc2ccccc2)C1=O (centres undefined)
187 to 188 °C

One more compound: CC(C)(C)[Si](C)(C)OCCn1cc([N+](=O)[O-])cn1
63 to 64 °C

Shifting focus to the compound that follows.
Requested read-out: melting point. Entry: Cc1[nH]c(-c2ccccc2)nc1C=O
102 to 115 °C

###

Catalogue of melting point readings, one per entry.

Look over these answered cases.
Requested read-out: melting point. Entry: CCOC(=O)c1ncc2[nH]c3cccc(OCc4cccc(F)c4)c3c2c1COC
188 °C

One more compound: O=C1N(Cc2noc(C(F)F)n2)c2ccccc2C12COc1cc3c(cc12)OCO3 (centres undefined)
137 to 139 °C

One more compound: CCCCCCCCCCCc1ccc(CC(=O)O)cc1
83 to 84 °C

Further cases:
Requested read-out: melting point. Entry: COc1ccc(-c2nn(C3CCCC3)c3c(F)cccc23)cc1
70 to 71 °C

One more compound: CCCC(CCC)n1nnc2c(Oc3c(Br)cc(C(C)C)cc3OC)nc(C)nc21
129 to 131 °C

One more compound: COC(=O)c1ccc(CCC(=O)/C=C/c2ccc(O)c(OC)c2)o1
93 to 94 °C

One more compound: CCOC(=O)c1c(C)oc(=O)c(-c2c(C)cc(C)cc2C)c1OC(C)=O
107 to 109 °C

One more compound: CCCSc1nc(N)n(-c2nnc(-c3ccccc3O)s2)n1
195 to 198 °C

One more compound: CNc1nnc(-c2ccc3occ(-c4cccc(OC(F)(F)F)c4)c3c2)o1
169 to 170 °C

One more compound: CNC(=O)n1nc(Oc2ccc([N+](=O)[O-])cc2C(F)(F)F)c(Cl)c1C
157 to 158 °C

One more compound: CCCCCCCCCCCCS(=O)(=O)c1ccccc1[N+](=O)[O-]
47 to 48 °C

One more compound: COC(=O)c1ccc(C=CC(=O)N2CCc3c([nH]c4ccccc34)C2c2ccc3c(c2)CCO3)cc1 (centres undefined)
186 °C

One more compound: O=C(O)COc1cccc2c1CCC(COC(=O)N(c1ccccc1)c1ccccc1)C2 (centres undefined)
137 to 142 °C

One more compound: CCSC1=NCC(=O)N1c1cc(Cl)ccc1OC
113 to 115 °C

###

experimental.endpoint: melting point

Requested read-out: melting point. Entry: CCCCC(O)c1cccc(NC(=O)OCc2ccccc2)c1 (stereo not given)
83 to 86 °C

One more molecule: Oc1ccc2c(c1)CCCC(c1ccccc1)=C2c1ccc(OCCCCCSCc2cccs2)cc1
178 °C

One more molecule: COC(=O)[C@H](Cc1ccc([N+](=O)[O-])cc1)NC(=O)c1c(C)cccc1Cl
120 to 123 °C

One more molecule: COc1cc(C=O)ccc1OCC1CO1 (stereo not given)
56 to 58 °C

One more molecule: COc1ccc2[nH]c(-c3ccccc3)cc2c1
148 to 149 °C

One more molecule: O=c1cc(Oc2ccccc2)c2cc(C(c3ccc(Cl)cc3)n3ccnc3)ccc2[nH]1 (stereo not given)
233 °C

One more molecule: CC(C)(C)c1cc(CCCBr)cc(C(C)(C)C)c1O
52 to 54 °C

One more molecule: CCOC(=O)c1c(C)cc2c(c1C)C(=O)OCC2=O
142 to 144 °C

One more molecule: CC(C)C1(C(C)C)C(=O)N=C2c3ccccc3C(=O)N21
146 to 148 °C
